Reported IC50 by item:
Target: UniProt P43490
Sequence (P43490 whole entry): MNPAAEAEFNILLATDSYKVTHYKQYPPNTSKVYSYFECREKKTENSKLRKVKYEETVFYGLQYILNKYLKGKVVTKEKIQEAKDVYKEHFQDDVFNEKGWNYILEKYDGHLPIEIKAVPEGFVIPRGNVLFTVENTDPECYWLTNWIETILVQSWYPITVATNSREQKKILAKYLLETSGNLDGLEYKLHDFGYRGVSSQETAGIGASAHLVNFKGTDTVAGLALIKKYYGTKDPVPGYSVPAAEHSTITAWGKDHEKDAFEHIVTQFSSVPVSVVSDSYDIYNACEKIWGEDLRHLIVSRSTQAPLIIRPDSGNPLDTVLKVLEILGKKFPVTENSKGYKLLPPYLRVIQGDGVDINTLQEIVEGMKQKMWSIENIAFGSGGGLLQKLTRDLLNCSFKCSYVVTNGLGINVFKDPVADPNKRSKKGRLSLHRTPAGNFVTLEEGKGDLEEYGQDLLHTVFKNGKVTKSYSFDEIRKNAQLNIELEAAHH
Assay: NAMPT enzyme assay (TR-FRET/HTRF, BodiPY ligand, anti 6His-Tb)
Type: binding
Settings: NAMPT IC50 range class; read-out: IC50

Below: 3 compounds and their reported IC50.
compound | IC50
CCOc1cccc(-c2nc3ccc(C(=O)NCCCn4ccnc4)cc3nc2-c2ccccc2)c1 [Compound I-228] | 0.1 to 0.5 µM
CN(CCc1cccnc1)C(=O)c1ccc2nc(-c3ccc(F)cc3)c(-c3ccc(F)cc3)nc2c1 [Compound I-84] | 2 to 10 µM
O=C(NCCCn1ccnc1)c1ccc2nc(N3CCCC3)c(-c3ccccc3)nc2c1 [Compound I-206] | 0.1 to 0.5 µM

Turning now to a further compound:
// returns reported IC50 for input O=C(c1ccc2nc(-c3ccc(F)cc3)c(-c3ccc(F)cc3)nc2c1)N1CCc2[nH]nc(O)c2C1 [Compound I-285]
2 to 10 µM
